Tested on: Human dermal fibroblasts (HDF) cells
Assay name: Cytotoxicity assay (resazurin)
Type: cell-based
Measurement setup: Human dermal fibroblasts cells; tested at 20 μcool L^−1
HDF average % growth inhibition reference
Metric name: HDF average % growth inhibition (%)

INSERT INTO results (compound, metric_name, recorded_measurement) VALUES
  ('Cc1ccc(S(=O)(=O)NN2C(=O)C(=Cc3ccc(C(=O)O)cc3)SC2=S)cc1 [SACC-0412064]', 'HDF average % growth inhibition', '−7.067'),
  ('O=C1C(=Cc2ccccc2)SC(=S)N1NS(=O)(=O)c1ccccc1 [SACC-0412060]', 'HDF average % growth inhibition', 6.873),
  ('CCCCCCCCn1c2c(c(=N)c3c1CCC3)CCCC2 [SACC-0050177]', 'HDF average % growth inhibition', 38.55),
  ('Cc1ccc(-c2csc3ncnc(NCc4ccco4)c23)cc1 [SACC-0033457]', 'HDF average % growth inhibition', 8.023),
  ('Cc1csc2ncnc(NCCc3ccc(Cl)cc3)c12 [SACC-0039590]', 'HDF average % growth inhibition', '−13.23');
